Where these numbers come from: patent US10011615B2

Entries and their EC50
target_or_test_system: human A2a receptor (Homo sapiens)
Sequence (P29274 whole entry): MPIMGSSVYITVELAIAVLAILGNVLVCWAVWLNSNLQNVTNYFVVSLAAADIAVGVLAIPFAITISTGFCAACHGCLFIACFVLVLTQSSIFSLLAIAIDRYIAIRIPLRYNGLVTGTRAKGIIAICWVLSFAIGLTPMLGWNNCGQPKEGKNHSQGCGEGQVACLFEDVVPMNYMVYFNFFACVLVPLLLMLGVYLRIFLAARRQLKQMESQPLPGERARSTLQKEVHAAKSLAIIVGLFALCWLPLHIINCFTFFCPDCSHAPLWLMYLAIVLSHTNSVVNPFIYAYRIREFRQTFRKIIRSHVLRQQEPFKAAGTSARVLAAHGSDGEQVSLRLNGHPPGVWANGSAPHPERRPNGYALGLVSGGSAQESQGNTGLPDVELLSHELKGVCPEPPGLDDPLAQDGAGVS
experimental_protocol: A2a receptor competition binding assay using Scintillation Proximity technology
condition_details: membranes from HEK293 cells expressing human A2a receptor; 0.5 nM tritiated radioligand; SPA beads; 1 h room temperature
Field: numeric (nM). Do not append units.

| compound | unit_abbrev | measured_value |
| --- | --- | --- |
| COc1cccc2c1nc(N)n1nc(CC(=O)N3CCc4ccccc4CC3)nc21 | nM | 13.8 |
| CC[C@H](Cc1nc2c3cccc(OC)c3nc(N)n2n1)N1Cc2cccnc2C1 | nM | 4.9 |
| COc1cccc2c1nc(N)n1nc(CCN3Cc4nc(C5CC5)oc4C3)nc21 | nM | 1 |
| Nc1nc2c(F)cccc2c2nc(CCN3Cc4cccnc4C3)nn12 | nM | 15.9 |

Then there is this compound:
What does the record list as EC50 for COc1cccc2c1nc(N)n1nc(CCN3CCc4nc(C)oc4C3C)nc21 (centres unmarked) ? 1.4
